- TEST_SUMMARY: Quantitative High-Throughput drug screen in 47 multiple myeloma cell lines against the NCATS MIPE library collection: JIM3_ECACC cell viability assay (AID 1918963; also: nearly all actives have a fitted effect of over 35% in size)
- CONDITION_SUMMARY: JIM3 myeloma viability, CellTiter-Glo ATP, 48 h; series mostly up to 45.8 µM
Results filed as inconclusive are left out. Activity calls are given as the source filed them. Calls follow the shape of the dose curve; as a rule, active = well fitted cell-killing curve with a large enough effect; inconclusive = small, poorly fitted or top-dose-only effect; inactive = no such curve, though single readings can be large or run the other way.
Select the correct class. Options are active, inactive and nothing else.

So what was the verdict on `CC(C)[C@]12O[C@@H]1[C@@H]1O[C@]13[C@]1(O[C@H]1C[C@@H]1C4=C(CC[C@@]13C)C(=O)OC4)[C@H]2O` in this test?
inactive

Test call, this molecule: `C[C@@H]1CC[C@H]2[C@@H](C)C(=O)O[C@@H]3O[C@@]4(C)CC[C@H]1[C@]32OO4`
active

Which outcome was entered for the molecule `CCN1C[C@]2(OC(=O)c3ccccc3NC(C)=O)CC[C@H](OC)[C@@]34[C@H]5CC6[C@@H](OC)C[C@](O)(C(C[C@@H]23)[C@@H]14)[C@@]5(O)[C@@H]6OC` in this test?
inactive

Kindly provide the recorded test outcome for the following molecule: `O=c1[nH]c2ccc(Cl)cc2c(N[C@@H]2CN3CCC2CC3)c1-c1nc2ccccc2[nH]1`
active

Kindly provide the recorded test outcome for the following molecule: `Cc1ccccc1-n1c(Cn2cnc3c(N)ncnc32)nc2cccc(C)c2c1=O`
active

I'd appreciate the recorded outcome for `c1cc2c(cc1[C@H]1OC[C@H]3[C@H]1CO[C@H]3c1ccc3c(c1)OCO3)OCO2` from this test.
inactive

Just curious, what result did CO[C@H]1CCC(O[C@H]2C[C@H]([C@]3(C)CC[C@]4(C[C@H](O)[C@@H](C)[C@@H]([C@@H](C)C=C(C)C(=O)[C@H](C)C[C@H](C)C(=O)O)O4)O3)O[C@]3(O[C@@H]([C@H]4O[C@@](O)(CO)[C@H](C)C[C@H]4C)C[C@H]3C)[C@H]2C)O[C@H]1C (stereo partly specified) get here?
active

# lookup: test call for `C[C@@H]1[C@H](O)[C@@H](C)C=CC=CCCC=CC=CC=CC=C[C@H](O[C@H]2O[C@@H](C)[C@H](O)[C@@H](N)[C@@H]2O)CC2O[C@](O)(C[C@@H](O)[C@H](O)CC[C@@H](O)C[C@@H](O)C[C@@H](O)CC(=O)O[C@H]1C)C[C@H](O)[C@H]2C(=O)O`
inactive

Given `CC[C@@H]1[C@@H](C)O[C@@](O)([C@@H](C)[C@H](O)[C@H](C)[C@H]2OC(=O)C=CC=C[C@@H](C)[C@@H]([C@@H](C)[C@@H](O)[C@H](C)[C@@]3(O)C[C@H](O[C@H]4C[C@H](O)[C@H](O)[C@H](C)O4)[C@H](CC)[C@@H](C)O3)OC(=O)C=CC=C[C@@H]2C)C[C@H]1O[C@H]1C[C@H](O)[C@H](O)[C@H](C)O1` , state the outcome it received in this test.
active

Short answer needed: outcome of this test for `COc1cc2cc(c1Cl)N(C)C(=O)C[C@H](OC(=O)C(C)C)[C@]1(C)O[C@H]1[C@H](C)[C@@H]1C[C@@](O)(NC(=O)O1)[C@H](OC)C=CC=C(C)C2` ?
inactive

Outcome? `CCN1CCN(C(=O)Cc2ccc(Nc3ncc(F)c(Nc4ccc(C(=O)Nc5ccccc5Cl)cc4)n3)cc2)CC1`
active
